This collection of values is drawn from patent US8779197B2.

Target: NaV 1.7 channel (Homo sapiens)
Sequence (Q15858 whole entry): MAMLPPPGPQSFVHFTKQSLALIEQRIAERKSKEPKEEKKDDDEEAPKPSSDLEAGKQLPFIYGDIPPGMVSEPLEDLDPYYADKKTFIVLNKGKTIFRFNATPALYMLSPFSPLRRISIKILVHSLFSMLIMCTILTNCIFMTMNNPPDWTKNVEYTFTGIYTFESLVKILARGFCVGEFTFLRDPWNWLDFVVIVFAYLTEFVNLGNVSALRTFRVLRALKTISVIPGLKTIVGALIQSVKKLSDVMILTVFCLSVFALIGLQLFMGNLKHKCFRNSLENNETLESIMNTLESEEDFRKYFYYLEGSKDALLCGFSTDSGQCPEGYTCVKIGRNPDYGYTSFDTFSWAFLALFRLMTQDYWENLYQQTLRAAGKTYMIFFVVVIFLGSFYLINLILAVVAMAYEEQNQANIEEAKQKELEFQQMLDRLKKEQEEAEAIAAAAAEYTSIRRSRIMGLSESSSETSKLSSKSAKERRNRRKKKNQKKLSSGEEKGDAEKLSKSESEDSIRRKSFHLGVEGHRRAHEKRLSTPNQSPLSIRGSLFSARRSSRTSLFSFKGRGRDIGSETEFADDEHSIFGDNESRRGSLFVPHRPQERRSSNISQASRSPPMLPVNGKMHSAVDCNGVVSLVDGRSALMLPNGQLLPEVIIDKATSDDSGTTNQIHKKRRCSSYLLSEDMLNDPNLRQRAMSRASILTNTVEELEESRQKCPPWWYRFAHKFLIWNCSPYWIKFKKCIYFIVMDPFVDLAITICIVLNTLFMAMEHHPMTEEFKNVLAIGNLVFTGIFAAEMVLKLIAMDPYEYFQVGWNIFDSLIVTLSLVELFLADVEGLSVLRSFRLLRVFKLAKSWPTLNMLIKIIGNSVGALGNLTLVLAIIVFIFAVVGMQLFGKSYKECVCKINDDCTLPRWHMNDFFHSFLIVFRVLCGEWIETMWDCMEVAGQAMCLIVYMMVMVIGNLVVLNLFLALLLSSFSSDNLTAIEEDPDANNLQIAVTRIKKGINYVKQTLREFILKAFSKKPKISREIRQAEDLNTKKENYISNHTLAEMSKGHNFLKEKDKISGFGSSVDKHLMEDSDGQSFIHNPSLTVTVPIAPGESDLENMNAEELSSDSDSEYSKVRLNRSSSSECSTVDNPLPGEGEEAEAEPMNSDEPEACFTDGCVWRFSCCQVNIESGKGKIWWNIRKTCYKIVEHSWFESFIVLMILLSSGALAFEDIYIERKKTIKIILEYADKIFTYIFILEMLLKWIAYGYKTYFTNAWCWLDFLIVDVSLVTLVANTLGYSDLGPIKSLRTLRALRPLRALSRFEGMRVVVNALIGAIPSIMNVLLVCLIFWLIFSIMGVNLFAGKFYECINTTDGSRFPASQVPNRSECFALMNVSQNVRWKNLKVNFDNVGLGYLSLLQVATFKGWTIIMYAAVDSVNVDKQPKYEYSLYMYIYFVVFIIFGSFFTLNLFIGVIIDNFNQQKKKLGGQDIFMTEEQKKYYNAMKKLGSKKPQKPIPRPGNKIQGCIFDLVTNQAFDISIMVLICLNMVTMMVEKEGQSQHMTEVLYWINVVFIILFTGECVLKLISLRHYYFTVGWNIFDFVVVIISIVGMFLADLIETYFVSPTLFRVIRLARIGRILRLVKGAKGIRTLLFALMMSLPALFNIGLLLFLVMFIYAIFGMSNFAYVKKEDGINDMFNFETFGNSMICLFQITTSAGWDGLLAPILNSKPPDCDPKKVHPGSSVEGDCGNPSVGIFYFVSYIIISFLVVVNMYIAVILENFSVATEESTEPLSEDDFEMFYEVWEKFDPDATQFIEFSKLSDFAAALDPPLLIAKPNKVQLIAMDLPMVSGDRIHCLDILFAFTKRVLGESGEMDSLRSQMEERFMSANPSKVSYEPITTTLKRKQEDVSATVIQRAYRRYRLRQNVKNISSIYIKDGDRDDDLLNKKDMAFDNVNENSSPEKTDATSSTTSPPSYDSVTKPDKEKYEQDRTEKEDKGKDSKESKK
Assay: Activity against NaV 1.7 channel (optical membrane potential assay)
Readout Kind: IC50

Requested read-out IC50, target or system NaV 1.7 channel (Homo sapiens), entry CC(C)(C)c1ccc(C(=O)Nc2cccc(S(C)(=O)=O)c2)c(Oc2cccnc2C(F)(F)F)c1 [Compound 16] 2 to 10 µM

Subsequent entry: CNC(=O)c1cccc(NC(=O)c2ccc(C(C)(C)C)cc2Oc2ccc(F)cc2Cl)c1 [Compound 11] 2 to 10 µM

Would you kindly repeat that for CC(C)(C)c1ccc(C(=O)Nc2cccc(S(C)(=O)=O)c2)c(Oc2ncccc2C#N)c1 [Compound 14] ? < 2 µM

Next up: CC(C)(C)c1ccc(C(=O)Nc2cccc(S(C)(=O)=O)c2)c(Oc2ncccc2C(F)(F)F)c1 [Compound 18] 2 to 10 µM

Also check CC(C)(C)c1ccc(C(=O)Nc2cccc(S(C)(=O)=O)c2)c(Oc2cccc(C(F)(F)F)n2)c1 [Compound 17] 10 to 20 µM
